The reader will find reported relative viability values listed item by item below.
- Tested on: PC-3 [JPC-3]
- METHOD DESCRIPTION: relative viability (nuclei count vs DMSO), 5 days (fraction); higher = more cells survive
- RUN PARAMETERS: first compound 0.8 µM
Number only, no unit.

Would you please look over these solved cases?
# MOLECULE, relative viability
records = [
    ("C=C1C(=O)O[C@@H](CCCCCCCC)[C@@H]1C(=O)O [C-75] + C[C@@H](Oc1cc(-c2cnn(C3CCNCC3)c2)cnc1N)c1c(Cl)ccc(F)c1Cl [Crizotinib] (partner 1 µM)", 0.98),
    ("C=C1C(=O)O[C@@H](CCCCCCCC)[C@@H]1C(=O)O [C-75] + CC(=O)c1c(C)c2cnc(Nc3ccc(N4CCNCC4)cn3)nc2n(C2CCCC2)c1=O [Palbociclib] (partner 0.5 µM)", 0.515),
    ("Oc1nc(-c2ccc(C(F)(F)F)cc2)nc2c1CSCC2 [XAV939] + COc1cccc2cc(-c3nc([C@H]4CC[C@H](C(=O)O)CC4)n4ncnc(N)c34)[nH]c12 [OSI-027] (partner 0.5 µM)", 0.777),
    ("C=C1C(=O)O[C@@H](CCCCCCCC)[C@@H]1C(=O)O [C-75] + N=C(N)NC(=N)NCCc1ccccc1 [Phenformin] (partner 250 µM)", 0.47),
    ("Oc1nc(-c2ccc(C(F)(F)F)cc2)nc2c1CSCC2 [XAV939] + Cc1nc(NC(=O)N2CCC[C@H]2C(N)=O)sc1-c1ccnc(C(C)(C)C(F)(F)F)c1 [Alpelisib] (partner 2 µM)", 1.07),
]

Quick note, relative viability for C=C1C(=O)O[C@@H](CCCCCCCC)[C@@H]1C(=O)O [C-75] + COc1cccc2cc(-c3nc([C@H]4CC[C@H](C(=O)O)CC4)n4ncnc(N)c34)[nH]c12 [OSI-027] (partner 0.5 µM) landed at 0.736

Documented relative viability of Oc1nc(-c2ccc(C(F)(F)F)cc2)nc2c1CSCC2 [XAV939] + CC1(C)CCC(c2ccc(Cl)cc2)=C(CN2CCN(c3ccc(C(=O)NS(=O)(=O)c4ccc(N[C@H](CCN5CCOCC5)CSc5ccccc5)c(S(=O)(=O)C(F)(F)F)c4)cc3)CC2)C1 [Navitoclax] (partner 0.5 µM) : 0.814

According to the records, this molecule C=C1C(=O)O[C@@H](CCCCCCCC)[C@@H]1C(=O)O [C-75] + Cc1nc(Nc2ncc(C(=O)Nc3c(C)cccc3Cl)s2)cc(N2CCN(CCO)CC2)n1 [Dasatinib] (partner 0.075 µM) displays relative viability of 1.01

Summary for this molecule, C=C1C(=O)O[C@@H](CCCCCCCC)[C@@H]1C(=O)O [C-75] + Cc1nc(NC(=O)N2CCC[C@H]2C(N)=O)sc1-c1ccnc(C(C)(C)C(F)(F)F)c1 [Alpelisib] (partner 2 µM) : relative viability is 1.07

Short answer for Oc1nc(-c2ccc(C(F)(F)F)cc2)nc2c1CSCC2 [XAV939] + CS(=O)(=O)N1CCN(Cc2cc3nc(-c4cccc5[nH]ncc45)nc(N4CCOCC4)c3s2)CC1 [Pictilisib] (partner 1 µM) : relative viability was 0.663

relative viability for C=C1C(=O)O[C@@H](CCCCCCCC)[C@@H]1C(=O)O [C-75] + CS(=O)(=O)N1CCN(Cc2cc3nc(-c4cccc5[nH]ncc45)nc(N4CCOCC4)c3s2)CC1 [Pictilisib] (partner 1 µM) is 0.674

// relative viability value for Oc1nc(-c2ccc(C(F)(F)F)cc2)nc2c1CSCC2 [XAV939] + Nc1nc2[nH]cc(CCc3ccc(C(=O)N[C@@H](CCC(=O)O)C(=O)O)cc3)c2c(=O)[nH]1 [Pemetrexed] (partner 0.2 µM) : 0.946

----------
- Tested on: COR-L23
- METHOD DESCRIPTION: relative viability (nuclei count vs DMSO), 5 days (fraction); higher = more cells survive
- RUN PARAMETERS: first compound 0.1265 µM
EXPERIMENTAL ENDPOINT: relative viability
I only need the number, thanks.

The examples below pair each entry with its known result.
# COMPOUND, EXPERIMENTAL SYSTEM, relative viability
measured = [
    ("O=C(O)c1ccc(-c2c[nH]c3ncc(-c4ccccc4)cc23)cc1C1CCCC1 + O=C(c1cc(Cc2n[nH]c(=O)c3ccccc23)ccc1F)N1CCN(C(=O)C2CC2)CC1 [Olaparib] (partner 8 µM)", "COR-L23", 0.353),
    ("O=C(O)c1ccc(-c2c[nH]c3ncc(-c4ccccc4)cc23)cc1C1CCCC1 + Cc1nc(NC(=O)N2CCC[C@H]2C(N)=O)sc1-c1ccnc(C(C)(C)C(F)(F)F)c1 [Alpelisib] (partner 2 µM)", "COR-L23", 0.745),
]

Documented relative viability of O=C(O)c1ccc(-c2c[nH]c3ncc(-c4ccccc4)cc23)cc1C1CCCC1 + Cc1nc(Nc2ncc(C(=O)Nc3c(C)cccc3Cl)s2)cc(N2CCN(CCO)CC2)n1 [Dasatinib] (partner 0.075 µM) : 0.578

----------
- System: NCI-H1650
- METHOD DESCRIPTION: relative viability (nuclei count vs DMSO), 5 days (fraction); higher = more cells survive
- RUN PARAMETERS: first compound 0.253 µM
This section presents compounds with their documented relative viability values.
Could you keep your reply to the number by itself?

Use these answered entries as a reference point.
# COMPOUND, relative viability
measured = [
    ("C=C1C(=O)O[C@@H](CCCCCCCC)[C@@H]1C(=O)O [C-75] + O=C(CCCCCCC(=O)Nc1ccccc1)NO [Vorinostat] (partner 1 µM)", 0.751),
    ("Oc1nc(-c2ccc(C(F)(F)F)cc2)nc2c1CSCC2 [XAV939] + Cc1cc(Nc2cc(N3CCN(C)CC3)nc(Sc3ccc(NC(=O)C4CC4)cc3)n2)n[nH]1 [Tozasertib] (partner 0.1 µM)", 0.36),
]

Entry Oc1nc(-c2ccc(C(F)(F)F)cc2)nc2c1CSCC2 [XAV939] + COc1cc2c(Oc3ccc(NC(=O)C4(C(=O)Nc5ccc(F)cc5)CC4)cc3F)ccnc2cc1OCCCN1CCOCC1 [Foretinib] (partner 0.25 µM) — recorded relative viability = 1.25

----------
Quick reference: relative viability of the listed items.
- Test system: Calu-6
- METHOD DESCRIPTION: relative viability (nuclei count vs DMSO), 5 days (fraction); higher = more cells survive
- RUN PARAMETERS: first compound 0.05 µM
Would you mind answering with just the numeric figure?

# COMPOUND, EXPERIMENTAL SYSTEM, EXPERIMENTAL ENDPOINT, ASSAY RESULT
measured = [
    ("CC1(C)CCC(c2ccc(Cl)cc2)=C(CN2CCN(c3ccc(C(=O)NS(=O)(=O)c4ccc(N[C@H](CCN5CCOCC5)CSc5ccccc5)c(S(=O)(=O)C(F)(F)F)c4)cc3)CC2)C1 [Navitoclax] + Cc1nc(NC(=O)N2CCC[C@H]2C(N)=O)sc1-c1ccnc(C(C)(C)C(F)(F)F)c1 [Alpelisib] (partner 2 µM)", "Calu-6", "relative viability", 0.943),
    ("CC1(C)CCC(c2ccc(Cl)cc2)=C(CN2CCN(c3ccc(C(=O)NS(=O)(=O)c4ccc(N[C@H](CCN5CCOCC5)CSc5ccccc5)c(S(=O)(=O)C(F)(F)F)c4)cc3)CC2)C1 [Navitoclax] + COc1cc2c(Oc3ccc(NC(=O)C4(C(=O)Nc5ccc(F)cc5)CC4)cc3F)ccnc2cc1OCCCN1CCOCC1 [Foretinib] (partner 0.25 µM)", "Calu-6", "relative viability", 0.937),
]

Calu-6 relative viability of CC1(C)CCC(c2ccc(Cl)cc2)=C(CN2CCN(c3ccc(C(=O)NS(=O)(=O)c4ccc(N[C@H](CCN5CCOCC5)CSc5ccccc5)c(S(=O)(=O)C(F)(F)F)c4)cc3)CC2)C1 [Navitoclax] + C[C@@H](Oc1cc(-c2cnn(C3CCNCC3)c2)cnc1N)c1c(Cl)ccc(F)c1Cl [Crizotinib] (partner 1 µM) is 0.894

// returns relative viability for CC1(C)CCC(c2ccc(Cl)cc2)=C(CN2CCN(c3ccc(C(=O)NS(=O)(=O)c4ccc(N[C@H](CCN5CCOCC5)CSc5ccccc5)c(S(=O)(=O)C(F)(F)F)c4)cc3)CC2)C1 [Navitoclax] + CS(=O)(=O)CCNCc1ccc(-c2ccc3ncnc(Nc4ccc(OCc5cccc(F)c5)c(Cl)c4)c3c2)o1 [Lapatinib] (partner 2 µM) with Calu-6; value = 1.05

----------
Listing: relative viability of selected compounds
- System: NCI-H2405
- METHOD DESCRIPTION: relative viability (nuclei count vs DMSO), 5 days (fraction); higher = more cells survive
- RUN PARAMETERS: first compound 1 µM

Worked cases, answers included:
# COMPOUND, relative viability
records = [
    ("NC(=O)Nc1cc(-c2cccc(F)c2)sc1C(=O)N[C@H]1CCCNC1 [AZD7762] + N=C(N)NC(=N)NCCc1ccccc1 [Phenformin] (partner 250 µM)", 0.242),
    ("NC(=O)Nc1cc(-c2cccc(F)c2)sc1C(=O)N[C@H]1CCCNC1 [AZD7762] + O=C(CCCCCCC(=O)Nc1ccccc1)NO [Vorinostat] (partner 1 µM)", 0.521),
    ("NC(=O)Nc1cc(-c2cccc(F)c2)sc1C(=O)N[C@H]1CCCNC1 [AZD7762] + CC1(C)CCC(c2ccc(Cl)cc2)=C(CN2CCN(c3ccc(C(=O)NS(=O)(=O)c4ccc(N[C@H](CCN5CCOCC5)CSc5ccccc5)c(S(=O)(=O)C(F)(F)F)c4)cc3)CC2)C1 [Navitoclax] (partner 0.5 µM)", 0.244),
]

Recorded result, NC(=O)Nc1cc(-c2cccc(F)c2)sc1C(=O)N[C@H]1CCCNC1 [AZD7762] + CS(=O)(=O)CCNCc1ccc(-c2ccc3ncnc(Nc4ccc(OCc5cccc(F)c5)c(Cl)c4)c3c2)o1 [Lapatinib] (partner 2 µM) , relative viability: 0.422

Per the record, NC(=O)Nc1cc(-c2cccc(F)c2)sc1C(=O)N[C@H]1CCCNC1 [AZD7762] + O=C(c1cc(Cc2n[nH]c(=O)c3ccccc23)ccc1F)N1CCN(C(=O)C2CC2)CC1 [Olaparib] (partner 8 µM) has relative viability of 0.294

For record NC(=O)Nc1cc(-c2cccc(F)c2)sc1C(=O)N[C@H]1CCCNC1 [AZD7762] + CC(=O)Nc1cccc(-n2c(=O)n(C3CC3)c(=O)c3c(Nc4ccc(I)cc4F)n(C)c(=O)c(C)c32)c1 [Trametinib] (partner 0.02 µM) the listed relative viability is 0.347

// relative viability value for NC(=O)Nc1cc(-c2cccc(F)c2)sc1C(=O)N[C@H]1CCCNC1 [AZD7762] + Nc1ncn([C@H]2C[C@H](O)[C@@H](CO)O2)c(=O)n1 [Decitabine] (partner 2 µM) : 0.487
